# test protocol: Plasma and lung epithelial lining fluid (ELF) pharmacokinetics in ICR mice
# Format: in vivo
# condition set: ICR, mouse, plasma; 20 mg/kg IP; read-out: mean plasma AUCinf
# Procedure: At pre-dose, 1, 3, 6, 12, 24, 48, and 72 hours post-dose, 3 mice/timepoint were anesthetized/euthanized for blood collection (plasma) and bronchoalveolar lavage fluid (BALF) collection with 2×0.5 mL flushes of saline. Urea levels for plasma/BALF normalization for the volume of lung epithelial lining fluid (ELF) calculation were quantified using a commercially-available spectrophotometry-based assay. […] Urea for plasma/BALF normalization for ELF volume were quantified using spectrophotometry. […]
Numbered stars: 1 amine (or outer) side, 2 acyl side, 3 side chain; on linkers, the order of the positions; unused ones are H or OH. Bridge positions count the residues as written; N and C are the ends. Square brackets hold non-standard residues; d marks the D form. Peptide text beside a SMILES is read from it. * marks the point of attachment. ξ: configuration not given here. Orn(4R-OH,5R-OCH2CH2NMe3+) = C[N+](C)(C)CCO[C@@H](N[*:3])[C@H](O)C[C@H](N[*:1])C(=O)[*:2]; pTerphenylCO(4''-OnC5H11) = CCCCCOc1ccc(-c2ccc(-c3ccc(C(=O)*)cc3)cc2)cc1; hTyr(3S-OH,4S-OH) = N[C@H](C(=O)O)[C@H](O)[C@@H](O)c1ccc(O)cc1; X1 = C[C@H]1CN([*:1])C(C(=O)[*:2])C1O; Hyp = O=C(O)[C@@H]1C[C@@H](O)CN1; ξT = CC(O)C(N)C(=O)O
readout name: AUC(0-inf) (µg·h/mL)
Give a bare numeral; the unit µg·h/mL is implied.

Query: Give AUC(0-inf) for the following compound: CCCCCOc1ccc(-c2ccc(-c3ccc(C(=O)N[C@H]4C[C@@H](O)[C@@H](OCC[N+](C)(C)C)NC(=O)C5C(O)[C@@H](C)CN5C(=O)[C@H]([C@@H](C)O)NC(=O)[C@H]([C@H](O)[C@@H](O)c5ccc(O)cc5)NC(=O)[C@@H]5C[C@@H](O)CN5C(=O)C(C(C)O)NC4=O)cc3)cc2)cc1 (stereo partly drawn) [CD101] ({pTerphenylCO(4''-OnC5H11)}-[Orn(4R-OH,5R-OCH2CH2NMe3+)][ξT][Hyp][hTyr(3S-OH,4S-OH)]T[X1]; lactam 1-C)
Result: 848
